// provenance: the supplement of paper PMC7411054

tested on: A549-CANX-COX4; assay: phenotypically active (imaging signature differs from DMSO and reproducible) at any of 0.3-9 uM (binary (1 = active, 0 = inactive)); higher = active; settings: treatment time: 24 h
Possible outcomes: YES = active, NO = inactive

CC(=O)OC(C)C[N+](C)(C)C (stereo unspecified) [methacholine] = NO
C[C@]12CC[C@@H]3c4ccc(O)cc4CC[C@H]3[C@@H]1CC[C@@H]2OC(=O)CCC1CCCC1 [estradiol cypionate] = NO
Cc1cc(C(C)(C)C)c(O)c(C)c1CC1=NCCN1 [oxymetazoline] = NO
N=C(N)Nc1nc(CSCCC(=N)NS(N)(=O)=O)cs1 [famotidine] = NO
Nc1ncnc2c1ncn2[C@H]1O[C@@H](C(=O)N2CCN(CC(=O)Nc3cccc4c3CNC4=O)CC2)[C@H](O)[C@@H]1O = NO
CCCCCCCCCCCCC/C=C/[C@H](O)[C@H](N)CO [D-erythro-Sphingosine (synthetic)] = NO
CC(C)C[C@H](NC(=O)OCC1c2ccccc2-c2ccccc21)C(=O)O = NO
COc1ccccc1OCCNCC(O)COc1cccc2[nH]c3ccccc3c12 (stereo unspecified) [Carvedilol] = NO
c1ccc(-c2cnn3cc(-c4ccc(OCCN5CCOCC5)cc4)cnc23)cc1 = NO
COc1ccc(C(C)=O)c(O)c1 [2'-Hydroxy-4'-Methoxyacetophenone] = NO
CCc1cccc(CC)c1NC(=O)N1Cc2[nH]nc(NC(=O)c3ccc(N4CCN(C)CC4)cc3)c2C1 = YES
CCCCc1nc(Cl)c(CO)n1Cc1ccc(-c2ccccc2-c2nnn[nH]2)cc1 [losartan] = NO
O=P(O)(O)C(O)(Cc1cccnc1)P(=O)(O)O [risedronate] = NO
CC(C)(C(=O)c1cccnc1)c1cccnc1 [metyrapone] = NO
CC(C)NCCCn1c(Sc2cc3c(cc2I)OCO3)nc2c(N)ncnc21 = YES
CO[C@@H]1[C@H](N(C)C(=O)c2ccccc2)C[C@H]2O[C@]1(C)n1c3ccccc3c3c4c(c5c6ccccc6n2c5c31)C(=O)NC4 = YES
CCCCOc1cc(C(=O)OCCN(CC)CC)ccc1N [oxybuprocaine] = NO
CCCc1cc(C)n(C)c(=O)c1CN(C)C(=O)c1cc(-c2ccc(N3CCN(C(C)C)CC3)nc2)cc2c1cnn2C(C)C = NO
CCCC(=O)O [Sodium butyrate] = NO
C[C@H]1[C@H]2CC[C@H]3[C@@H]4CC=C5C[C@@H](N(C)C)CC[C@]5(C)[C@H]4CC[C@]23CN1C [Conessine] = YES
O=C(Nc1cccnc1)c1cc(-c2ccnc(F)c2)ccc1OCc1ccccc1 = NO
O=C1CCC[C@@H]2[C@H]3CCC[N+]4([O-])CCC[C@@H](CN12)[C@@H]34 (stereo partly specified) [Oxymatrine] = NO
COC(=O)C1=C(C)NC(C)=C(C(=O)OCCN(C)Cc2ccccc2)C1c1cccc([N+](=O)[O-])c1 (stereo unspecified) [nicardipine] = NO
Nc1ncnc2c1ncn2[C@@H]1O[C@H](CO)C[C@H]1O [Cordycepin] = NO
CS(=O)(=O)OCCCCOS(C)(=O)=O [busulfan] = NO
CC(=O)OCC[N+](C)(C)C [acetylcholine] = NO
Cc1cc(C(=O)NNCc2ccccc2)no1 [isocarboxazid] = NO
CN1[C@@H](CC(=O)c2ccccc2)CCC[C@H]1C[C@H](O)c1ccccc1 [Lobeline alpha (-) hydrochoride] = NO
C=CC(=O)N1CCC[C@@H](n2nc(-c3cccc(C(=O)Nc4ccc(C(C)C)c(C)c4)c3)c3c(N)ncnc32)C1 = YES
COc1ccc(CCc2nc3cc(-c4c(C)noc4C)ccc3n2C[C@H](C)N2CCOCC2)cc1Cl = NO
Cc1ncc(-c2ccnc(Nc3ccc(S(C)(=O)=O)cc3)n2)n1C(C)C = YES
CN(C)CCc1c[nH]c2ccc(C[C@H]3COC(=O)N3)cc12 [zolmitriptan] = NO
C[C@@H]1COCCN1c1cc(C2(S(C)(=O)=O)CC2)nc(-c2cccc3[nH]ccc23)n1 = YES
O=C(CCc1ccc(O)cc1)c1c(O)cc(O)cc1O[C@@H]1O[C@H](CO)[C@@H](O)[C@H](O)[C@H]1O [Phloridzin] = NO
O=[N+]([O-])c1cc([N+](=O)[O-])c(/C=C/c2ccc(Cl)c(Cl)c2)cc1/C=C/c1ccc(Cl)c(Cl)c1 = NO
O=C(O)CCNC(=O)c1ccc(/N=N/c2ccc(O)c(C(=O)O)c2)cc1 [balsalazide] = NO
